TARGET_UNDER_TEST: papain (Carica papaya)
Construct: purchased Sigma Chem. Co
PROTOCOL_NOTES: Papain inhibitory activity (milk casein digestion)
Assay type: biochemical
CONDITIONS_USED: papain 80 μg/ml 0.5 ml, cysteine, pH 6.8, 1% milk casein, 40° C., 10 minutes
ENDPOINT_LABEL: ID50 (amount of inhibitor for 50% inhibition)

COMPOUND: CCOC(=O)[C@H](CC(C)C)NC(=O)C1OC1C(=O)OC (stereo partly drawn)
RESULT: 0.67 γ
--
COMPOUND: CCOC(=O)[C@H](CC(C)C)NC(=O)C1OC1C(=O)OCCCC1CCCC1 (stereo partly drawn)
RESULT: 0.12 γ
--
COMPOUND: O=C(O)[C@@H]1O[C@H]1C(=O)OCCCCC1CCCCC1 (relative stereo)
RESULT: 0.10 γ
--
COMPOUND: O=C(O)[C@@H]1O[C@H]1C(=O)OC1CCCC1 (relative stereo) [EP-26, cyclopentyl potassium epoxysuccinate]
RESULT: 0.08 γ
--
COMPOUND: CCOC(=O)[C@@H](NC(=O)C1OC1C(=O)OC)[C@@H](C)O (stereo partly drawn)
RESULT: 17.13 γ
--
COMPOUND: CC(OC(=O)C1OC1C(=O)O)C1CCCC1 (stereo not drawn)
RESULT: 0.08 γ
--
COMPOUND: O=C(O)C1OC1C(=O)N[C@@H](Cc1c[nH]c2ccccc12)C(=O)O (stereo partly drawn)
RESULT: 1.50 γ
--
COMPOUND: O=C(O)[C@@H]1O[C@H]1C(=O)OC1CC1 (relative stereo) [EP-28, cyclopropyl potassium epoxysuccinate]
RESULT: 0.80 γ
--
COMPOUND: O=C(O)C1OC1C(=O)OCC1C=CCC1 (stereo not drawn)
RESULT: 0.08 γ

* * *

TARGET_UNDER_TEST: papain (Carica papaya)
Construct: purchased Sigma Chem. Co
Sequence (P00784 134-345): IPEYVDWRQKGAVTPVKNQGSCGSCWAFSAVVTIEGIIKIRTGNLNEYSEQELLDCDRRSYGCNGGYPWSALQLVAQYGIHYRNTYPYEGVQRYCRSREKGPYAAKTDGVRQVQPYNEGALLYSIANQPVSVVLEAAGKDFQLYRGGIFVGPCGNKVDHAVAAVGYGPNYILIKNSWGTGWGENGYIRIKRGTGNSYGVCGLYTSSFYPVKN
PROTOCOL_NOTES: Papain inhibitory activity (milk casein digestion)
Type: biochemical
CONDITIONS_USED: papain 80 μg/ml 0.5 ml, cysteine, pH 6.8, 1% milk casein, 40° C., 10 minutes
Experimental: Papain inhibitory activity of the compounds of this invention was assayed as follows: To 0.5 ml of a solution of papain (80 μg/ml, Sigma Chem. Co., 2x cry.), were added 0.25 ml of 40 mM cysteine dissolved in 20 mM disodium ethylenediamine tetraacetic acid solution adjusted pH to 6.8 with sodium hydroxide and 0.25 ml of 33 mM phosphate buffer (pH 6.8) with or without inhibitor. […] The extinction of the filtrate was read at 280 nm. […]
Listing of recorded ID50 (amount of inhibitor for 50% inhibition) by entry.
ENDPOINT_LABEL: ID50 (amount of inhibitor for 50% inhibition)

COMPOUND: C[C@H]1CCCC[C@H]1OC(=O)[C@@H]1O[C@H]1C(=O)O[C@@H]1CCCC[C@@H]1C (relative stereo) [EP-3]
RESULT: 2.12 γ
--
COMPOUND: Cc1cccc(COC(=O)[C@@H]2O[C@H]2C(=O)OCc2cccc(C)c2Br)c1Br (relative stereo) [EP-97]
RESULT: 3.20 γ
--
COMPOUND: O=C(O)[C@@H]1O[C@H]1C(=O)O[C@@H]1CCC[C@H]1Br (relative stereo) [EP-34]
RESULT: 0.07 γ
--
COMPOUND: CCCCCCCCCCCCOC(=O)[C@H]1O[C@@H]1C(=O)O (relative stereo) [EP-145, n-dodecyl potassium epoxysuccinate]
RESULT: 0.14 γ
